Data credit: paper PMC4490784

target: EGFR (Homo sapiens, UniProt P00533)
Sequence (P00533 25-1210): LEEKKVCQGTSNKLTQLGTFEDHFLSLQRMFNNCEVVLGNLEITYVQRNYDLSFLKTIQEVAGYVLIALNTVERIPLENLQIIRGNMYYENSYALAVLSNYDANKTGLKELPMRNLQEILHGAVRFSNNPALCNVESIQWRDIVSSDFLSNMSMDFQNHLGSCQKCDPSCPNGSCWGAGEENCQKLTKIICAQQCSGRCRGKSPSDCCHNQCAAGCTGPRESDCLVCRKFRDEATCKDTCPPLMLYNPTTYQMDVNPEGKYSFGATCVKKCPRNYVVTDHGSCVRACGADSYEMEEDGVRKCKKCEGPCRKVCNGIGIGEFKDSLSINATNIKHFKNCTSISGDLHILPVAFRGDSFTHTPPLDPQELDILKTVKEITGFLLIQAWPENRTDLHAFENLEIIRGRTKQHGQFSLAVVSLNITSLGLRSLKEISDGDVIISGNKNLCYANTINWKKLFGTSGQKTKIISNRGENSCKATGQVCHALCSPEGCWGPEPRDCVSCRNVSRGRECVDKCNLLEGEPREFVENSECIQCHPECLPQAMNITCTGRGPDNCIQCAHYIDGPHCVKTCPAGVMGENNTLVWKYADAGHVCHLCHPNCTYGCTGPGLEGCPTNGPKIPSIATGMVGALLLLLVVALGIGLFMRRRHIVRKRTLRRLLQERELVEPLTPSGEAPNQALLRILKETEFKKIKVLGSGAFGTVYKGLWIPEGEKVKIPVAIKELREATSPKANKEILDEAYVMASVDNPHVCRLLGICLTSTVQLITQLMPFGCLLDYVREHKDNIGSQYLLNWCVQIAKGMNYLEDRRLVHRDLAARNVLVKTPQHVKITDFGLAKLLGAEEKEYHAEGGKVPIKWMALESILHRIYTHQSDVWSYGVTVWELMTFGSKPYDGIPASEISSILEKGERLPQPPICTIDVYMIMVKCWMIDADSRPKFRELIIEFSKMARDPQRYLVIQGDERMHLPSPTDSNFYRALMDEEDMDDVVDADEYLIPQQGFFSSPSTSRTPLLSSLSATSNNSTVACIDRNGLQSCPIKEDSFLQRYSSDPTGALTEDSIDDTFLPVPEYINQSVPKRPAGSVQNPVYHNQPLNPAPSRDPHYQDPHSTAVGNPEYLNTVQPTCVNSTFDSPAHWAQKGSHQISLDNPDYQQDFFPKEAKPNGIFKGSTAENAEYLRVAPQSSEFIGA
METRIC: IC50

Requested read-out: IC50. Entry: N[C@H]1CC[C@H](Nc2cc(-c3cccc(NCc4cccc(F)c4)n3)c(Cl)cn2)CC1 [i-CDK9] > 10 µM

----------
molecular target: CDK9 (Homo sapiens, UniProt P50750)
Sequence (P50750 whole entry): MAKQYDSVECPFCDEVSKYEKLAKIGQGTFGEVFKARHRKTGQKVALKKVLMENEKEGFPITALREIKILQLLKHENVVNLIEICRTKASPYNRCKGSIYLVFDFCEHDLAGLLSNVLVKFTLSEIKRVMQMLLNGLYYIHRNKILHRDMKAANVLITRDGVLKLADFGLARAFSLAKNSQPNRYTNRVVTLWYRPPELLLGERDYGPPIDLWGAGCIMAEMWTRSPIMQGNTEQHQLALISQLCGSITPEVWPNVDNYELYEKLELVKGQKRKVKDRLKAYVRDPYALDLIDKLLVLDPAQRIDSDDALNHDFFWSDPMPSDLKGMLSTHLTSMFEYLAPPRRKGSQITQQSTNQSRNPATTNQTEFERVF
Sequence (O60563 whole entry partner): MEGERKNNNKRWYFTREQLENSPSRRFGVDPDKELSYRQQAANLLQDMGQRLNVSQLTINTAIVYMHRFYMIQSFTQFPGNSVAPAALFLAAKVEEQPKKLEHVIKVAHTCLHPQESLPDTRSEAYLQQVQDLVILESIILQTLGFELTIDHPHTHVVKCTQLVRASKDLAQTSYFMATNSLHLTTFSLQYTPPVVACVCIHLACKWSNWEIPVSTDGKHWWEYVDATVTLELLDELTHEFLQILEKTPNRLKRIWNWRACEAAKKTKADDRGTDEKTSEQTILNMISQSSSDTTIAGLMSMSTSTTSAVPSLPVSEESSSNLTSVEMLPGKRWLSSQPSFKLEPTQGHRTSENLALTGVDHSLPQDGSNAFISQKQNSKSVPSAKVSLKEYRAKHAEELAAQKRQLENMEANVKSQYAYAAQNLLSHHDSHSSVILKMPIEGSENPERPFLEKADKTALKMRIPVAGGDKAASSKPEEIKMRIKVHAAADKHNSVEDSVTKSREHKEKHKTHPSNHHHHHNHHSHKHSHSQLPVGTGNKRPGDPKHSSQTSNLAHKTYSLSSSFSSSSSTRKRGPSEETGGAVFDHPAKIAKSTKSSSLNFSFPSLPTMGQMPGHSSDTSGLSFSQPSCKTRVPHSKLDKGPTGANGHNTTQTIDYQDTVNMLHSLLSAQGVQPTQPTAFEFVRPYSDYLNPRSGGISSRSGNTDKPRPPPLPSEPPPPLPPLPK
pIC50: −log10 of the molar value.
METRIC: pIC50

Requested read-out: pIC50. Entry: N[C@H]1CC[C@H](Nc2cc(-c3cccc(NCc4cccc(F)c4)n3)c(Cl)cn2)CC1 > 9.40

----------
molecular target: AURKA (Homo sapiens, UniProt O14965)
Sequence (O14965 whole entry): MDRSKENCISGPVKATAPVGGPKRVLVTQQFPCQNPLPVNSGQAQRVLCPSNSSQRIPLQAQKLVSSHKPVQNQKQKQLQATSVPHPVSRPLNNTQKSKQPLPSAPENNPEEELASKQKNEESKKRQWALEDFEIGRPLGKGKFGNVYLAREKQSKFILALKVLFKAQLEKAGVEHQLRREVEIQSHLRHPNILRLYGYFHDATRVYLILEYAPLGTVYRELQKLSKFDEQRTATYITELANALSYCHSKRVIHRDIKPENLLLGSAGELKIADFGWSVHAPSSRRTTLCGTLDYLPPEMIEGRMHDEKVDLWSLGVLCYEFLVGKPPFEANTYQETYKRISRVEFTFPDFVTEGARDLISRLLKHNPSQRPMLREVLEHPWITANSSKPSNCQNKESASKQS
METRIC: IC50

Requested read-out: IC50. Entry: N[C@H]1CC[C@H](Nc2cc(-c3cccc(NCc4cccc(F)c4)n3)c(Cl)cn2)CC1 > 10 µM
